# Test system: Rattus norvegicus
# assay: Antihypertensive activity as percentage fall in systolic blood pressure in spontaneously hypertensive rats after a period of 1 hr for a dose of 50 mg/kg po
# Format: functional, organism-based
# Set-up: dose 50 mg/kg
# testParameters: Artery
recordedMetric: Decrease in blood pressure

{"columns": ["compound", "Decrease in blood pressure"],
 "data": [
  ["CCCCN1CC2(CCN(CC(O)C3COc4ccccc4O3)CC2)OC1=O (stereo unspecified)", "Not significant"],
  ["COc1ccccc1OCC(O)CN1CCC2(CC1)CNC(=O)O2 (stereo unspecified)", "Not significant"],
  ["O=C1OC2(CCN(CC(O)C3COc4ccccc4O3)CC2)CN1Cc1ccccc1 (stereo unspecified)", "Not significant"],
  ["CCCN1CC2(CCN(CC(O)COc3ccccc3OC)CC2)OC1=O (stereo unspecified)", "Not significant"]
]}

Dear colleague, I am looking for the recorded Decrease in blood pressure of the following compound: O=C1OC2(CCN(CCc3c[nH]c4ccccc34)CC2)CN1CCc1ccccc1
Not significant

And then CC1NC(=O)OC12CCN(CC(O)C1COc3ccccc3O1)CC2 (stereo unspecified) , what is it?
Not significant

Now try COc1ccccc1OCC(O)CN1CCC2(CC1)CN(Cc1ccccc1)C(=O)O2 (stereo unspecified) .
Not significant

Try O=C1OC2(CCN(CCc3c[nH]c4ccccc34)CC2)CN1Cc1ccccc1 next.
Not significant

----------
# Test system: Canis familiaris
# assay: Change in mean arterial pressure in anesthetized dogs for a dose of 0.1 mg/kg
# Type: functional, Canis lupus familiaris, Artery
recordedMetric: MAP (mmHg)
Enter your answer as a number in mmHg; do not include the unit.

{"columns": ["molecule", "MAP (mmHg)"],
 "data": [
  ["O=C(NC1CCN(CCc2c[nH]c3ccccc23)CC1)c1ccccc1", -5],
  ["Cc1ccc(N(CC2=NCCN2)c2cccc(O)c2)cc1", -9],
  ["CN1CC2(CCN(CC(O)C3COc4ccccc4O3)CC2)OC1=O (centres undefined)", 4]
]}

Now examine the next entry.
Which MAP value is on record for O=C1NCC2(CCN(CCc3c[nH]c4ccccc34)CC2)O1 ?
-2

----------
# Test system: Canis familiaris
# assay: Percent inhibition of the pressor responses to 7.5 ug/kg iv phenylephrine in pentobarbital-anesthetized dogs for a dose of 0.1 mg/kg
# Assay type: functional
# testParameters: Canis lupus familiaris
recordedMetric: inhibition in vivo at 0.1 mg/kg
Units required after the number.

Previously resolved entries follow.
{"columns": ["compound", "assayTarget", "inhibition in vivo at 0.1 mg/kg"],
 "data": [
  ["Cc1ccc(N(CC2=NCCN2)c2cccc(O)c2)cc1", "Canis familiaris", "42%"],
  ["O=C1NCC2(CCN(CCc3c[nH]c4ccccc34)CC2)O1", "Canis familiaris", "17%"],
  ["CN1CC2(CCN(CC(O)C3COc4ccccc4O3)CC2)OC1=O (centres undefined)", "Canis familiaris", "0%"]
]}

Field: next compound
Dear colleague, I am looking for the recorded inhibition in vivo at 0.1 mg/kg of the following compound: O=C(NC1CCN(CCc2c[nH]c3ccccc23)CC1)c1ccccc1
65%

----------
# Test system: Rattus norvegicus
# assay: Percentage fall in systolic blood pressure in spontaneously hypertensive rats after 3 h following 50 mg/kg p.o.
# Assay type: functional, Artery
# testParameters: route oral
# Decrease in blood pressure per record follows
# output: bare number, implied unit %

{"columns": ["molecule", "unitLabel", "Decrease in blood pressure"],
 "data": [
  ["CCCC1NC(=O)OC12CCN(CCc1c[nH]c3ccccc13)CC2 (stereo not drawn)", "%", 16]
]}

Fill blank: measured Decrease in blood pressure of the molecule O=C1NCC2(CCN(CC(O)C3COc4ccccc4O3)CC2)O1 (stereo not drawn) is ____.
21

What about this molecule? COc1ccccc1OC[C@@H](O)CN1CCC2(CC1)CN(C)C(=O)O2
10

Entry to check: Cc1ccc(N(CC2=NCCN2)c2cccc(O)c2)cc1 [PHENTOLAMINE]
19

What would you report for CC(C)CC1NC(=O)OC12CCN(CCc1c[nH]c3ccccc13)CC2 (stereo not drawn) ?
22

# iterate: CCC1NC(=O)OC12CCN(CC1COc3ccccc3O1)CC2 (stereo not drawn)
42

Next entry: O=C(NC1CCN(CCc2c[nH]c3ccccc23)CC1)c1ccccc1 [INDORAMIN]
13

Can you handle CCC1NC(=O)OC12CCN(CCc1c[nH]c3ccccc13)CC2 (stereo not drawn) next?
17

Please give the result for CCCCC1NC(=O)OC12CCN(CCc1c[nH]c3ccccc13)CC2 (stereo not drawn) too.
15

Now the same for CCN1CC2(CCN(CC(O)C3COc4ccccc4O3)CC2)OC1=O (stereo not drawn)
11

Do the same for CC(C)N1CC2(CCN(CC(O)C3COc4ccccc4O3)CC2)OC1=O (stereo not drawn) please
16

Param item: CN1CC2(CCN(CC(O)C3COc4ccccc4O3)CC2)OC1=O (stereo not drawn)
14

And what about the molecule O=C1NCC2(CCN(CCc3c[nH]c4ccccc34)CC2)O1 ?
7

----------
# assay: Distribution coefficient between 1-Octanol and phosphate buffer at pH7.4
# Assay type: physicochemical
# testParameters: 1-octanol/phosphate buffer, pH 7.4
recordedMetric: logD

Query: logD; subject: O=C(NC1CCN(CCc2c[nH]c3ccccc23)CC1)c1ccccc1 [INDORAMIN]
2.13

# repeat for COc1ccccc1OCC(O)CN1CCC2(CC1)CN(Cc1ccccc1)C(=O)O2 (stereo unspecified)
2.19

Likewise for CC1NC(=O)OC12CCN(CC(O)C1COc3ccccc3O1)CC2 (stereo unspecified) ?
1.21

Another molecule: O=C1NCC2(CCN(CC(O)C3COc4ccccc4O3)CC2)O1 (stereo unspecified)
0.98

Would you mind doing Cc1ccc(N(CC2=NCCN2)c2cccc(O)c2)cc1 [PHENTOLAMINE] as well?
0.82

Then COc1ccccc1OCC(O)CN1CCC2(CC1)CN(C)C(=O)O2 (stereo unspecified) ?
0.96

----------
# System: Rattus norvegicus
# assay: Antihypertensive activity as percentage fall in systolic blood pressure in spontaneously hypertensive rats after a period of 1 hr for a dose of 50 mg/kg po
# Type: functional, organism-based
# Set-up: dose 50 mg/kg
# testParameters: Artery

{"columns": ["molecule", "Decrease in blood pressure"],
 "data": [
  ["CCC1N(C)C(=O)OC12CCN(CCc1c[nH]c3ccccc13)CC2 (stereo not drawn)", "Not significant"],
  ["CCCN1CC2(CCN(CC(O)C3COc4ccccc4O3)CC2)OC1=O (stereo not drawn)", "Not significant"],
  ["CCCCN1CC2(CCN(CC(O)COc3ccccc3OC)CC2)OC1=O (stereo not drawn)", "Not significant"]
]}

Reference source: ChEMBL document CHEMBL1121744
